# human FGFR1 (Homo sapiens, UniProt P11362): pIC50 values follow
# Sequence (P11362 22-822): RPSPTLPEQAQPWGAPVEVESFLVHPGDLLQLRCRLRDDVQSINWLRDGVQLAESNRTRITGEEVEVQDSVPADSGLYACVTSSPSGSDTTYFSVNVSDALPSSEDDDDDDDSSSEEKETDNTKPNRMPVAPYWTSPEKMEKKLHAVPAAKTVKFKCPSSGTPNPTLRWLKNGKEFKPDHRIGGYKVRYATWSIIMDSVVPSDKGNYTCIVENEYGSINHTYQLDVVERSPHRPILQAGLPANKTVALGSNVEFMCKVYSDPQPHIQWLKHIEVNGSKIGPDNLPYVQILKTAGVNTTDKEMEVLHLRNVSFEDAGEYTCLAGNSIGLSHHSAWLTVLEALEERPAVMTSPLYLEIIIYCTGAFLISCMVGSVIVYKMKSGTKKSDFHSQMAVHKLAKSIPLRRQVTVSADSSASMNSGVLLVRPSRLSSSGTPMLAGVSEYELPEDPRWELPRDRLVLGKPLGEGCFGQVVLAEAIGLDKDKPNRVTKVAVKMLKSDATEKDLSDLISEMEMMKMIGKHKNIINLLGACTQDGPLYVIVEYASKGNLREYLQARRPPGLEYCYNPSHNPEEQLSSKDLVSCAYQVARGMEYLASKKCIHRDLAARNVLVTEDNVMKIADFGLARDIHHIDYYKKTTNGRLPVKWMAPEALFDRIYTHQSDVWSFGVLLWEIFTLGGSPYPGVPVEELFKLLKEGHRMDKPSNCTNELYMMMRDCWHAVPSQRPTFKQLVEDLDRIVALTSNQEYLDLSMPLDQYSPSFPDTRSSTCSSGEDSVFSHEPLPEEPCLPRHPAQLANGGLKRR
pIC50: −log10 of the molar value. Structures can show the parent of a compound that is named as a salt.

{"Compound": "COc1cc(OC)c(F)c(Cc2c[nH]c3ncc(-c4cnn(C5CN(S(C)(=O)=O)C5)c4)cc23)c1F [Trifluoroacetate salt of embodiment 23]", "Measured on": "human FGFR1 (Homo sapiens, UniProt P11362)", "pIC50": 8.31}
{"Compound": "COc1cc(OC)c(F)c(Cc2c[nH]c3ncc(-c4cncc(C5(C#N)CCNCC5)c4)cc23)c1F [Trifluoroacetate salt of embodiment 61]", "Measured on": "human FGFR1 (Homo sapiens, UniProt P11362)", "pIC50": 9.15}
{"Compound": "COc1cc(OC)c(F)c(Cc2c[nH]c3ncc(-c4cnc5c(c4)CNC5)cc23)c1F [Trifluoroacetate salt of embodiment 50]", "Measured on": "human FGFR1 (Homo sapiens, UniProt P11362)", "pIC50": 9.92}
